Source: the supplement of paper PMC10899765

- Test system: MCF10A
- TEST_DESCRIPTION: percent viability (nuclei count relative to siNT); higher = more viable cells
- CONDITION_SET: 20 nM; 72 h
EXPERIMENTAL_READOUT: percent viability
Kindly write the number and append the unit.

// percent viability lookup, key: AAAGUUCUGAGACACUCCGACU [hsa-miR-148a-5p] 89%

Hi team, please reply with percent viability for each item in this list.
1. CUUAGCAGGUUGUAUUAUCAUU [hsa-miR-374b-3p]
2. AAAGUAGCUGUACCAUUUGC [hsa-miR-562]
3. CAUCUUACUGGGCAGCAUUGGA [hsa-miR-200b-5p]
4. GCUCUGACUUUAUUGCACUACU [hsa-miR-301a-5p]
5. UCUAGUAAGAGUGGCAGUCGA [hsa-miR-628-3p]

1. 67.5%
2. 83.9%
3. 73.7%
4. 68.8%
5. 55.8%

Hi, could you look up percent viability for each item in my list?
1. UCAGCUGGCCCUCAUUUC [hsa-miR-1207-3p]
2. UUCUCCCACUACCAGGCUCCCA [hsa-miR-4713-5p]
3. CUGUGGGCUCAGCGCGUGGGG [hsa-miR-4322]
4. AGGGGCUGGCUUUCCUCUGGUC [hsa-miR-185-3p]
5. ACUGGGGAGCAGAAGGAGAACC [hsa-miR-4667-5p]
6. CAGGCAGGGAGGUGGGACCAUG [hsa-miR-6808-5p]

15.3%
32.9%
31.3%
22.6%
9.07%
21.7%
